The values you see were collected from ChEMBL document CHEMBL2406915.

# Test method notes: Cytotoxicity against human KB cells
# Type: cell-based
# Measurement conditions: read-out: ED50 (the source's name)
Kindly apply the following: YES if CC50 is less than 3 µg/mL, NO in every other case.

### Prompt Find out if reported CC50 for CNC[C@@H](CC1CCCCC1)NC[C@@H](Cc1ccc2ccccc2c1)NCCc1ccc(Cl)c(Cl)c1 is less than 3 µg/mL
### Response NO

### Prompt Bench note: check whether CNC[C@@H](Cc1ccccc1)NC[C@@H](Cc1ccc2ccccc2c1)NCC1(c2ccccc2)CC1 shows CC50 below 3 µg/mL
### Response YES

### Prompt Is CC50 strictly under 3 µg/mL for the entry CNC[C@H](Cc1ccc2ccccc2c1)NC[C@H](Cc1ccc2ccccc2c1)NCC1(c2ccccc2)CC1 ?
### Response YES

### Prompt In the record for CCOc1ccc(CCN[C@H](CN[C@@H](CNC)CC2CCCCC2)Cc2ccc3ccccc3c2)cc1 , is CC50 less than 3 µg/mL?
### Response NO

### Prompt Here's an entry: CNC[C@@H](CC1CCCCC1)NC[C@H](Cc1ccc2ccccc2c1)NCC1(c2ccccc2)CC1 . Is its CC50 below 3 µg/mL?
### Response YES

### Prompt # check: CC50 < 3 µg/mL for CCOc1ccc(CCN[C@H](CN[C@H](CNC)Cc2ccc3ccccc3c2)Cc2ccc3ccccc3c2)cc1
### Response NO

### Prompt I wonder whether CNC[C@H](Cc1ccc2ccccc2c1)NC[C@@H](Cc1ccc2ccccc2c1)NCC1(c2ccccc2)CC1 has CC50 below 3 µg/mL. Can you tell?
### Response YES

###

# Test method notes: Cytotoxicity against human KB cells
# Format: cell-based
# Measurement conditions: read-out: ED50 (the source's name)
Observable: CC50 (µg/mL)
Answer in µg/mL, number only, no unit symbol.

The compound CNC[C@@H](Cc1ccc2ccccc2c1)NC[C@H](Cc1ccc2ccccc2c1)NCC1(c2ccccc2)CC1 showed CC50 equal to 1.43

// CC50 value for CNC[C@H](Cc1ccc2ccccc2c1)NC[C@H](Cc1ccc2ccccc2c1)NCCC1CCCCC1 : 1.77

Record CNC[C@@H](CC1CCCCC1)NC[C@@H](Cc1ccc2ccccc2c1)NCC(C)c1ccc(CC(C)C)cc1 (some centres undefined) , field CC50: 7.01

# CC50 (compound: CNC[C@@H](Cc1ccccc1)NC[C@H](Cc1ccc2ccccc2c1)NCC1(c2ccccc2)CC1 ) is 0.52

###

# Test method notes: Toxicity index, ratio of ED50 for human KB cells to ED50 for […] Plasmodium falciparum 3D7
# Format: cell-based
# Measurement conditions: KB cells versus Plasmodium falciparum 3D7, read-out: Ratio ED50
Note to self: selectivity ratio under 20 means label 1, ties and anything higher get label 0.

### Prompt Does this molecule meet the criterion selectivity ratio < 20? CNC[C@H](Cc1ccc2ccccc2c1)NC[C@@H](Cc1ccc2ccccc2c1)NCCC1CCCCC1
### Response label 1

### Prompt Hi there! Is selectivity ratio for CNC[C@@H](CC1CCCCC1)NC[C@@H](Cc1ccc2ccccc2c1)NCCc1ccc(Cl)c(Cl)c1 below 20, do you know?
### Response label 1

### Prompt Please indicate whether the reported selectivity ratio of CNC[C@@H](Cc1ccc2ccccc2c1)NC[C@H](Cc1ccc2ccccc2c1)NCC1(c2ccccc2)CC1 is strictly below 20.
### Response label 1

### Prompt Is 20 strictly greater than the molecule's reported selectivity ratio? molecule: CNC[C@@H](CC1CCCCC1)NC[C@H](Cc1ccc2ccccc2c1)NCC1CCC(C)CC1 (some centres undefined)
### Response label 0

### Prompt Consider CNC[C@@H](Cc1ccccc1)NC[C@@H](Cc1ccc2ccccc2c1)NCC1CCC(C)CC1 (some centres undefined) . Does its selectivity ratio lie strictly below 20?
### Response label 1

### Prompt Item CNC[C@@H](Cc1ccccc1)NC[C@@H](Cc1ccc2ccccc2c1)NCC1(c2ccccc2)CC1 : selectivity ratio beneath 20, strictly?
### Response label 1

### Prompt Lab note: selectivity ratio threshold 20. Does this molecule come in strictly under it? CCOc1ccc(CCN[C@H](CN[C@H](CNC)Cc2ccc3ccccc3c2)Cc2ccc3ccccc3c2)cc1
### Response label 0

### Prompt Lab note: confirm whether the reported selectivity ratio for this molecule is below 20, equality not counting. molecule: CNC[C@H](Cc1ccc2ccccc2c1)NC[C@@H](Cc1ccc2ccccc2c1)NCC1(c2ccccc2)CC1
### Response label 0

### Prompt Below 20 on selectivity ratio? Entry CNC[C@H](Cc1ccc2ccccc2c1)NC[C@H](Cc1ccc2ccccc2c1)NCC1(c2ccccc2)CC1
### Response label 0

### Prompt Bench note: check whether CNC[C@H](Cc1ccc2ccccc2c1)NC[C@@H](Cc1ccc2ccccc2c1)NCC(C)c1ccc(CC(C)C)cc1 (some centres undefined) shows selectivity ratio below 20
### Response label 1

### Prompt Is the reported selectivity ratio for CNC[C@@H](Cc1ccccc1)NC[C@H](Cc1ccc2ccccc2c1)NCC1(c2ccccc2)CC1 strictly below 20?
### Response label 1

### Prompt # TODO verify selectivity ratio < 20 strictly for this molecule: CNC[C@H](Cc1ccc2ccccc2c1)NC[C@H](Cc1ccc2ccccc2c1)NCCC1CCCCC1
### Response label 0

### Prompt Item CNC[C@@H](CC1CCCCC1)NC[C@@H](Cc1ccc2ccccc2c1)NCC(C)c1ccc(CC(C)C)cc1 (some centres undefined) : selectivity ratio beneath 20, strictly?
### Response label 0

### Prompt For this molecule, is selectivity ratio lower than 20? CNC[C@H](Cc1ccc2ccccc2c1)NC[C@@H](Cc1ccc2ccccc2c1)NCCc1ccc(Cl)c(Cl)c1
### Response label 0

### Prompt Lab log: compare recorded selectivity ratio with 20; is it strictly lower for CNC[C@@H](CC1CCCCC1)NC[C@@H](Cc1ccc2ccccc2c1)NCCC1CCCCC1 ?
### Response label 1

### Prompt Confirm or reject: selectivity ratio of CCOc1ccc(CCN[C@H](CN[C@@H](CNC)CC2CCCCC2)Cc2ccc3ccccc3c2)cc1 lies strictly below 20
### Response label 1

### Prompt Determine if CNC[C@H](Cc1ccc2ccccc2c1)NC[C@H](Cc1ccc2ccccc2c1)NCC(C)c1ccc(CC(C)C)cc1 (some centres undefined) shows selectivity ratio strictly lower than 20.
### Response label 1

### Prompt Dear reviewer, please state whether CNC[C@@H](CC1CCCCC1)NC[C@H](Cc1ccc2ccccc2c1)NCC1(c2ccccc2)CC1 has selectivity ratio strictly beneath 20.
### Response label 1

###

# Test method notes: Cytotoxicity against human KB cells
# Assay type: cell-based
# Measurement conditions: read-out: ED50 (the source's name)
The label YES is reserved for CC50 strictly under 2 µg/mL; NO covers values equal to or above it.

### Prompt Strictly below 2 µg/mL in CC50? CNC[C@H](Cc1ccc2ccccc2c1)NC[C@@H](Cc1ccc2ccccc2c1)NCC(C)c1ccc(CC(C)C)cc1 (some centres undefined)
### Response YES

### Prompt Is the reported CC50 for CNC[C@H](Cc1ccc2ccccc2c1)NC[C@@H](Cc1ccc2ccccc2c1)NCCc1ccc(Cl)c(Cl)c1 strictly below 2 µg/mL?
### Response NO

### Prompt Is CC50 strictly under 2 µg/mL for the entry CNC[C@@H](Cc1ccccc1)NC[C@@H](Cc1ccc2ccccc2c1)NCC1CCC(C)CC1 (some centres undefined) ?
### Response YES

### Prompt Problem: For the molecule CNC[C@H](Cc1ccc2ccccc2c1)NC[C@@H](Cc1ccc2ccccc2c1)NCCC1CCCCC1 , is CC50 under 2 µg/mL?
### Response YES

### Prompt Hello, I'm reviewing records and need to know if CC50 of CNC[C@@H](CC1CCCCC1)NC[C@@H](Cc1ccc2ccccc2c1)NCCC1CCCCC1 is below 2 µg/mL. Could you check?
### Response YES

### Prompt Threshold test, CC50 < 2 µg/mL: CNC[C@@H](CC1CCCCC1)NC[C@H](Cc1ccc2ccccc2c1)NCC1CCC(C)CC1 (some centres undefined)
### Response NO

### Prompt Check if CC50 falls below 2 µg/mL for CNC[C@@H](CC1CCCCC1)NC[C@H](Cc1ccc2ccccc2c1)NCCC1CCCCC1 .
### Response YES

### Prompt Is the reported CC50 for CNC[C@H](Cc1ccc2ccccc2c1)NC[C@H](Cc1ccc2ccccc2c1)NCC(C)c1ccc(CC(C)C)cc1 (some centres undefined) strictly below 2 µg/mL?
### Response NO
